Tested on: CCRF-CEM leukemia
Assay: NCI-60 one-dose screen, 48 h
Settings: 10 µM unless noted
This is part of a sample that, as a whole, favours compounds with a hit. Of some 83,000 tested, about 20% had one in any assay. Activity calls are given as the source filed them. Rule for the calls: active = growth percent below 10; inactive = the rest.
Classes to choose from: active, inactive

Prompt: // outcome(item) with item = COc1ccc(-c2csc3c2-n2cccc2C3=O)cc1O
Completion: active

Prompt: Try the compound COc1ccc(CSc2nc3cc(OC)c(OC)cc3c(=O)n2-c2ccc(Cl)cc2)cc1
Completion: inactive

Prompt: How about Cc1ccc(S(=O)(=O)N2CCc3ccc(O)c4c3C2Cc2ccc3c(c2-4)OCO3)cc1 (stereo not given) ?
Completion: active

Prompt: Same read-out for CC(C)(C)CC(C)(C)N(CSc1ccc(Cl)cc1)CSc1ccc(Cl)cc1 ?
Completion: active

Prompt: Now try COc1ccccc1/C=C/C(=O)/C=C/c1ccccc1O .
Completion: active

Prompt: Entry to check: ONc1nc(NO)c2[nH]cnc2n1
Completion: inactive

Prompt: Same question for CN1CCN(c2ccc3nc(-c4ccc5nc(-c6ccc(C(F)(F)F)cc6)[nH]c5c4)[nH]c3c2)CC1 please.
Completion: inactive

Prompt: Consider next the compound Cc1c(C(=O)Nc2nc(-c3ccccc3)cs2)nnn1-c1ccccc1Br in the same way.
Completion: inactive

Prompt: Another compound: O=c1c2c(=NCCN3CCCC3)cc3c(=O)n(CCCN4CCOCC4)c(=O)c4ccc(c(O)n1CCCN1CCOCC1)c2c4-3
Completion: active

Prompt: Another compound to check: CCCCOC(=O)C1OC(Oc2ccc3c(C)cc(=O)oc3c2)[C@@H](OC(C)=O)C(OC(C)=O)C1OC(C)=O (stereo not given in full)
Completion: inactive

Prompt: Same lookup for COc1cc(/C=C/C(=O)CC(=O)/C=C/c2cc(Br)c(OC)c(OC)c2)cc(Br)c1OC , please.
Completion: inactive

Prompt: Another: Cc1cccc2c(=O)c3c(sc12)c(NCCCN)nc1ccccc13
Completion: active

Prompt: Moving on to the next compound: Cc1cc(Cl)c2c(Cl)ccc(Cl)c2n1
Completion: inactive

Prompt: Param item: COc1cc(/C=C/c2cc(/C=C/c3ccc(O)c(OC)c3)n(-c3ccccc3)n2)ccc1O
Completion: active

Prompt: How about this compound: CN1CCn2c(c(Sc3ccc(C(=O)NO)cc3)c3ccccc32)C1=O
Completion: active
